Each item that follows carries a reported AC35.
System: EBV-transformed LCL viability, CellTiter-Glo ATP luminescence, 48 h
procedure details: EBV-transformed lymphoblastoid cell viability decrease, dose response, EBV LMP1 NF-kB inhibitor project, CellTiter-Glo, dry powder, replicate tests (AID 624375)
Inconclusive results are not listed.
measured quantity: AC35

>  <compound>
C[C@H]1CCCCO[C@@H](CN(C)CC2CCCCC2)[C@@H](C)CN([C@@H](C)CO)C(=O)c2cc(NC(=O)C3CCCCC3)ccc2O1

>  <reported>
18.1 µM

$$$$
>  <compound>
COc1ccc2[nH]c(C(=O)N/N=C/c3ccc(O)cc3O)cc2c1

>  <reported>
26.7 µM

$$$$
>  <compound>
CC12CCC3C(CC=C4CC(O)CCC43CO)C1CCC2OC(=O)c1ccccc1 (stereo not drawn)

>  <reported>
45.6 µM

$$$$
>  <compound>
Fc1ccc2c(c1)c1nnc(SCCN3CCOCC3)nc1n2Cc1ccccc1

>  <reported>
4.38 µM

$$$$
>  <compound>
C/C(=N\NC(=S)Nc1ccccc1)c1ccccn1

>  <reported>
< 0.08 µM

$$$$
>  <compound>
CSc1nc(-c2ccc(C)cc2)nc(C(Cl)Cl)n1

>  <reported>
21.7 µM

$$$$
>  <compound>
Cc1c(NC(=O)c2cccc(NC(=O)COc3ccccc3C#N)c2)c(=O)n(-c2ccccc2)n1C

>  <reported>
45.6 µM

$$$$
>  <compound>
C[C@H](CO)N1C[C@H](C)[C@@H](CN(C)CC2CC2)OCCCC[C@H](C)Oc2ccc(NC(=O)Nc3cccc4ccccc34)cc2C1=O

>  <reported>
43 µM

$$$$
>  <compound>
CCC(Sc1nnc2c3ccccc3n(Cc3ccc(Br)cc3)c2n1)C(=O)NCCCN1CCOCC1 (stereo not drawn)

>  <reported>
8.58 µM

$$$$
>  <compound>
C/C(=N\NC(=S)N1CCCC1)c1ccccn1

>  <reported>
< 0.08 µM

$$$$
>  <compound>
C/C(=N\NC(=S)Nc1ccc(C)cc1)c1ccccn1

>  <reported>
< 0.08 µM

$$$$
>  <compound>
O=C1/C(=C/c2ccncc2)SC(=S)N1Cc1ccccc1

>  <reported>
38.5 µM

$$$$
>  <compound>
C/C(=N\NC(=S)N1CC2CCC(CC2)C1)c1ccccn1

>  <reported>
< 0.08 µM

$$$$
>  <compound>
C[C@@H]1CN([C@@H](C)CO)C(=O)c2cc(NC(=O)Nc3ccc4c(c3)OCO4)ccc2O[C@H]1CN(C)CC1CCCCC1

>  <reported>
89.9 µM

$$$$
>  <compound>
C/C(=N\NC(=S)N1CCCCCC1)c1ccccn1

>  <reported>
< 0.08 µM

$$$$
>  <compound>
C/C(=N\NC(=S)Nc1ccccc1Cl)c1ccccn1

>  <reported>
< 0.08 µM

$$$$
>  <compound>
C[C@H](CO)N1C[C@H](C)[C@H](CN(C)C(=O)Nc2ccc(C(F)(F)F)cc2)OCCCC[C@H](C)Oc2ccc(NC(=O)Nc3ccc(F)cc3)cc2C1=O

>  <reported>
21.5 µM

$$$$
>  <compound>
C/C(=N\NC(=S)N1CCCCC1)c1cccc(C)n1

>  <reported>
< 0.08 µM

$$$$
>  <compound>
O=c1[nH]c(=O)n([C@H]2C[C@H](O)[C@@H](CO)O2)cc1C(F)(F)F

>  <reported>
10.1 µM

$$$$
>  <compound>
C[C@@H]1CN([C@@H](C)CO)C(=O)c2cc(NC(=O)Nc3ccc(C(F)(F)F)cc3)ccc2O[C@@H](C)CCCCO[C@@H]1CN(C)CC1CCCCC1

>  <reported>
45.7 µM

$$$$
>  <compound>
O=C(CSc1nnc2c3ccccc3n(Cc3ccccc3)c2n1)NCc1ccco1

>  <reported>
44.1 µM

$$$$
>  <compound>
Cc1ccc(NC(=O)C2CCN(S(=O)(=O)c3ccc4c(c3)NC(=O)C(C)S4)CC2)cc1Cl (stereo not drawn)

>  <reported>
45.7 µM

$$$$
>  <compound>
C/C(=N\NC(=S)N1CCC1)c1ccccn1

>  <reported>
< 0.08 µM

$$$$
>  <compound>
Nc1ccn([C@@H]2O[C@H](CO)[C@@H](O)C2O)c(=O)n1 (stereo partly drawn)

>  <reported>
26.1 µM

$$$$
>  <compound>
C/C(=N\NC(=S)N1CCN(C2CCCCCC2)CC1)c1ccccn1

>  <reported>
< 0.08 µM

$$$$
>  <compound>
C/C(=N\NC(=S)N1CC2CCC(CC2)C1)c1ccncn1

>  <reported>
< 0.08 µM

$$$$
>  <compound>
C[C@@H]1CN([C@@H](C)CO)C(=O)c2cc(NC(=O)Nc3ccc(C(F)(F)F)cc3)ccc2O[C@@H](C)CCCCO[C@H]1CN(C)Cc1ccc(C(F)(F)F)cc1

>  <reported>
30.8 µM

$$$$
>  <compound>
C[C@@H]1CCCCO[C@H](CN(C)C(=O)NC2CCCCC2)[C@H](C)CN([C@@H](C)CO)C(=O)c2cc(NC(=O)C3CCCCC3)ccc2O1

>  <reported>
22.1 µM

$$$$
>  <compound>
C/C(=N\NC(=S)N1CC2CCC(CC2)C1)c1cnccn1

>  <reported>
< 0.08 µM

$$$$
>  <compound>
COCCCNC(=O)C(C)Sc1nnc2c3cc(C)ccc3n(Cc3ccccc3F)c2n1 (stereo not drawn)

>  <reported>
25 µM

$$$$
>  <compound>
CC(=O)Nc1nc(C)c(-c2csc(Nc3ccc(O)cc3)n2)s1

>  <reported>
22.8 µM

$$$$
>  <compound>
COc1ccc(NC(=O)c2ccc(OC(C)C(=O)O)cc2)cc1Cl (stereo not drawn)

>  <reported>
34.1 µM

$$$$
>  <compound>
C=C1C[C@]23C[C@@]1(O)CC[C@@H]2c1cccc(C)c1[C@@H]3C(=O)O

>  <reported>
9.19 µM

$$$$

Cited source: PubChem BioAssay AID624375
